// provenance: patent US10919896B2

system under test: Cdc7/ASK (Homo sapiens)
Sequence (O00311 whole entry): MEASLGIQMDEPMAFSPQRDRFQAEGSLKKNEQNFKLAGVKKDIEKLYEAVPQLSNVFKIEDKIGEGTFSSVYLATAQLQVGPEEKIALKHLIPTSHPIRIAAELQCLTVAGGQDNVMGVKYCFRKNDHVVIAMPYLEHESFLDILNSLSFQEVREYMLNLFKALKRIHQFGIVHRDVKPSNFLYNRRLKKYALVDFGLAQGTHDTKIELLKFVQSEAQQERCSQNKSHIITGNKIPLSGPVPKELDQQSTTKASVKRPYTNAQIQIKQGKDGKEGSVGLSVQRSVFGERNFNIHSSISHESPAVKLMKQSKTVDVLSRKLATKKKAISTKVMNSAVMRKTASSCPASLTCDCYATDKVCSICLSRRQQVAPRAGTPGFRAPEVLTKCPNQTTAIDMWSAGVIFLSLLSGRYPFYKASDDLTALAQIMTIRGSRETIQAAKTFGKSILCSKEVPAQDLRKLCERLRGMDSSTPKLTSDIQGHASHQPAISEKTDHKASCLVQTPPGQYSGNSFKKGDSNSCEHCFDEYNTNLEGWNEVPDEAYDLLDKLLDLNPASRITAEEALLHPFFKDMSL
Sequence (Q9UBU7 whole entry partner): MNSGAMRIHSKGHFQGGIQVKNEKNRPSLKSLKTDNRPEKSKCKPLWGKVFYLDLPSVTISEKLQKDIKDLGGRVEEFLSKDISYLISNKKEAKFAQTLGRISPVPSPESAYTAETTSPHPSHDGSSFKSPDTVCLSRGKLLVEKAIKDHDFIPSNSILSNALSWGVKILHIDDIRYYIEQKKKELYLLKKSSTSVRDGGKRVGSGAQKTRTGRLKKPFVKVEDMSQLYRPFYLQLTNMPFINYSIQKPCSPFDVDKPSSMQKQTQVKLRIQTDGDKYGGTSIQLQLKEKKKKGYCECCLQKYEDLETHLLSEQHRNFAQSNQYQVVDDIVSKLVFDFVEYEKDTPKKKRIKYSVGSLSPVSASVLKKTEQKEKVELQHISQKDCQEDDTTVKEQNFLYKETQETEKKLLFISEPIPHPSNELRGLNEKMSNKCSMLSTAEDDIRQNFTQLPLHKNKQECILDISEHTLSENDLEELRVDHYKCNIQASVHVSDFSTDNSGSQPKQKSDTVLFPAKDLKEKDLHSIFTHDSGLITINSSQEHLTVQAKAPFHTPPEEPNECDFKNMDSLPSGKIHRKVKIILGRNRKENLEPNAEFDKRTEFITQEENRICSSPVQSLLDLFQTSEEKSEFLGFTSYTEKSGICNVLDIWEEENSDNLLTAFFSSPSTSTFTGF
test summary: Cdc7 Biochemical Assay Method 1: 384 well ELISA, whole protein substrate MCM2, antibody against Phospho MCM2 (S53)
Design: purchased
settings: 2 μM ATP, read-out: Biochemical Method 1 (pIC50) (converted)
compounds and their reported IC50
Answer shape: numeric part, then the unit.

Look over these answered cases.
compound | IC50
CC(C)CN1CCC(c2nc(-c3ccnc(F)c3)[nH]c(=O)c2Cl)CC1 | 3.02 nM
Cn1cnc(C(=O)N2CCC(c3nc(-c4ccncc4)[nH]c(=O)c3Cl)CC2)c1 | 2.09 nM
CC1(C)CN(c2nc(-c3ccncc3)[nH]c(=O)c2Cl)CCN1 | 2.34 nM
C[C@@H]1CN[C@@H](C)CN1c1nc(-c2ccncc2)[nH]c(=O)c1Cl | 85.1 nM
O=c1[nH]c(-c2ccncc2)nc(N2CCCC(O)C2)c1Cl (stereo not shown) | 8.13 nM

Query :: Query (compound): O=c1[nH]c(-c2ccncc2)nc(N2CCN(CC(F)(F)C(F)F)CC2)c1Cl ; field requested: IC50
Result :: 19.5 nM

Query :: Consider next the compound O=C(c1cccc(O)c1)N1CCC(c2nc(-c3ccncc3)[nH]c(=O)c2Cl)CC1 in the same way.
Result :: 3.09 nM
